Measured pIC50 values are reported for all entries that follow.
- STUDY SYSTEM: hERG (Homo sapiens)
- Sequence (Q12809 whole entry): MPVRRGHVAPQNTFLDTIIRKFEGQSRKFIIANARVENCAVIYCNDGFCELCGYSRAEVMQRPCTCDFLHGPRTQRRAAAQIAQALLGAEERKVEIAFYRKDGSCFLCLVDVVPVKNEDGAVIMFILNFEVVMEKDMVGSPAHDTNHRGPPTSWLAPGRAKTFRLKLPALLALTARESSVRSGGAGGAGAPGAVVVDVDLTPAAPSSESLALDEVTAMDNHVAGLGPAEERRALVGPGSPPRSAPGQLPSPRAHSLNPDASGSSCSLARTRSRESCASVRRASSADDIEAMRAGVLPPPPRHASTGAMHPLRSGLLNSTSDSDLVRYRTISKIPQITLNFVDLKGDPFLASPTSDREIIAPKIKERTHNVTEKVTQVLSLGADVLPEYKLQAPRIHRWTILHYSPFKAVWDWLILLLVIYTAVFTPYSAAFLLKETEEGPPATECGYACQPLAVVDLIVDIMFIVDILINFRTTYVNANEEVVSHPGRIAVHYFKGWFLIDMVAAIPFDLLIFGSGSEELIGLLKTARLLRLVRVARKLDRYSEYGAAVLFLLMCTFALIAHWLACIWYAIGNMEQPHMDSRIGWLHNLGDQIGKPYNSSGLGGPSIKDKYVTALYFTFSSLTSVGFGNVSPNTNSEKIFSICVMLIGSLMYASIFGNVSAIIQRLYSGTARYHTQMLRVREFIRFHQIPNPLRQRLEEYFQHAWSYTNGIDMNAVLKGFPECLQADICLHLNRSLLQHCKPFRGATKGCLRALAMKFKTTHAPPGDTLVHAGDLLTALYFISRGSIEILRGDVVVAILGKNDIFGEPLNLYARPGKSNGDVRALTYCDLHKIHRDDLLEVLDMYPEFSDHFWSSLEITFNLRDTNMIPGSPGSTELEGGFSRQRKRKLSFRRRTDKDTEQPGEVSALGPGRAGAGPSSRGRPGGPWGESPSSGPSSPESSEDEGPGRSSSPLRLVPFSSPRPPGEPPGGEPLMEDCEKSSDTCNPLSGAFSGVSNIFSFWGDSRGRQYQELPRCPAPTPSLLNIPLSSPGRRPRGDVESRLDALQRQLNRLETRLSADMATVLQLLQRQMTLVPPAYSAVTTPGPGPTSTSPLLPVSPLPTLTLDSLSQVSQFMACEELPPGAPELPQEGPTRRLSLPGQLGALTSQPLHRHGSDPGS
- ASSAY COMMENT: Cerep automated patch-clamp hERG assay, Chinese Hamster Ovary K1 cells
- MEASUREMENT PARAMETERS: Table 19; automated patch-clamp, CHO K1 cells, tail current
pIC50: −log10 of the molar value.
QUANTITY MEASURED: pIC50

>>> print(df.to_string())
                                   compound  readout_value
0  CNc1cc(F)cc2c1[nH]c1nc(Oc3cnc(C(C)O)nc3)nc(N3CC4C[C@@H](N)C4C3)c12 (stereo partly drawn)           5.12
1  CNc1cc(F)cc2c1[nH]c1nc(Oc3cnc([C@@H](C)O)nc3)nc(N3C[C@H]4C[C@@H]3C[C@H]4N)c12           5.19
